These data points were gathered from patent US10722501B2.

Study target: recombinant full-length human prolyl endopeptidase (PREP) (Homo sapiens, UniProt P48147)
Construct: To recombinant full-length human prolyl endopeptidase (PREP, R&D-Systems, 4308-SE)
Sequence (P48147 1-710): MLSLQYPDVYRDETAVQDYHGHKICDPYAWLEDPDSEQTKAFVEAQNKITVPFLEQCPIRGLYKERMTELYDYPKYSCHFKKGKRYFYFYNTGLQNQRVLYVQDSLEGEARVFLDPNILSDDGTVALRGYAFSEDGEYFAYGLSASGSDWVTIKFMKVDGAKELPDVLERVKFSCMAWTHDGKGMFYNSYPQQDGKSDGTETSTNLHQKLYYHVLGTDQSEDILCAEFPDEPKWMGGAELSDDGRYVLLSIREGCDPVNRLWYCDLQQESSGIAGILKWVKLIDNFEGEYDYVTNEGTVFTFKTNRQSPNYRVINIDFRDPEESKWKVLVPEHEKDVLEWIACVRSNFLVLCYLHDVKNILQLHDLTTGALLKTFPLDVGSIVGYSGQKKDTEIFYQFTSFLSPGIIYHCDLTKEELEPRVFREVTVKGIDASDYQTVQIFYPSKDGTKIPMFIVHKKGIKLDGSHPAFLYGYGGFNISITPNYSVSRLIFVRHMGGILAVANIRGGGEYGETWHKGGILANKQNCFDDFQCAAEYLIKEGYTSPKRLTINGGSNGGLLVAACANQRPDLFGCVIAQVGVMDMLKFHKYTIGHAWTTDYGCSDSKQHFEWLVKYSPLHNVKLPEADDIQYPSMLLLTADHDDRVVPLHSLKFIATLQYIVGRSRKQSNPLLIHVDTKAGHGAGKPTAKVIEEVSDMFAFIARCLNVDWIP
Assay overview: Biochemical human prolyl endopeptidase (PREP) assay with fluorescently labelled substrate
Test settings: substrate Z-Gly-Pro-AMC 50 μM, 32° C., 60 min; some as mean values from multiple independent determinations
Readout type: IC50 (nM)

# example entries with known answers
Compound	IC50 / nM
O=C([C@@H]1CCCc2nn(CC3(c4cccc(Cl)n4)CC3)c(=O)n21)N1CC[C@H](F)C1	0.35
O=C([C@@H]1CCCc2nn(Cc3nccc(C(F)(F)F)c3Cl)c(=O)n21)N1CC(O)C1	13.5
O=C(C1CCCc2nn(Cc3cccc(Cl)c3)c(=O)n21)N1CCC(F)(F)C1 (racemic)	2.1

(1) O=C([C@@H]1CCCc2nn(Cc3ncccc3Cl)c(=O)n21)N1C[C@@H](F)[C@@H](F)C1
(2) O=C([C@@H]1CCCc2nn(Cc3ccc(F)cc3Cl)c(=O)n21)N1CCC(F)(F)C1
(3) O=C([C@@H]1CCCc2nn(Cc3ncc(Cl)cc3F)c(=O)n21)N1CC(F)C(F)C1 (some centres unmarked)
(4) O=C([C@@H]1CCCc2nn(Cc3cncc(Cl)c3)c(=O)n21)N1CCC(F)(F)C1
(5) Cc1ccc(Cn2nc3n(c2=O)[C@H](C(=O)N2CC(CF)C2)CCC3)cc1
In: # rank_down: sort by IC50, max first Please reply with the labels ordered as requested. Many thanks.
Out: 3, 4, 1, 5, 2
(3: 36 nM, 4: 2.65 nM, 1: 1.6 nM, 5: 0.93 nM, 2: 0.21 nM)
